REPORTED_METRIC: melting point

MOLECULE | melting point
CCCCCCN1CCCN(c2nc(=O)c3cc(C(F)(F)F)cc([N+](=O)[O-])c3s2)CC1.Cl | 249 to 251 °C
CCCCCCCN1CCCN(c2nc(=O)c3cc(C(F)(F)F)cc([N+](=O)[O-])c3s2)CC1.Cl | 256 to 258 °C
Cl.O=c1nc(N2CCN(CCC3CCCCC3)CC2)sc2c([N+](=O)[O-])cc(C(F)(F)F)cc12 (hydrate or solvate) | 271 to 273 °C
Cl.O=c1nc(N2CCN(CCCCOc3ccccc3)CC2)sc2c([N+](=O)[O-])cc(C(F)(F)F)cc12 | 256 to 258 °C
CCCCN1CCN(c2nc(=O)c3cc(C(F)(F)F)cc([N+](=O)[O-])c3s2)CC1.Cl (hydrate or solvate) | 239 to 241 °C

The value of melting point measured for the molecule CCCCCN1CCCN(c2nc(=O)c3cc(C(F)(F)F)cc([N+](=O)[O-])c3s2)CC1.Cl turned out to be 246 to 248 °C

Just so you know, measured melting point for CCCCCCCN1CCN(c2nc(=O)c3cc(C(F)(F)F)cc([N+](=O)[O-])c3s2)CC1.Cl (hydrate or solvate) came out at 254 to 256 °C
